# Test system: ChaGo-K-1
# method_notes: relative viability (nuclei count vs DMSO), 5 days (fraction); higher = more cells survive
# experimental_context: first compound 0.04 µM
The following compounds are shown together with reported relative viability values.
API doc: respond with a numeric literal and nothing else, no unit.

The following compounds have reported results that may help.
- compound: "Cc1sc2c(c1C)C(c1ccc(Cl)cc1)=N[C@@H](CC(=O)OC(C)(C)C)c1nnc(C)n1-2 [JQ1] + CS(=O)(=O)N1CCN(Cc2cc3nc(-c4cccc5[nH]ncc45)nc(N4CCOCC4)c3s2)CC1 [Pictilisib] (partner 1 µM)"
  tgt: "ChaGo-K-1"
  relative viability: 0.752
- compound: "Cc1sc2c(c1C)C(c1ccc(Cl)cc1)=N[C@@H](CC(=O)OC(C)(C)C)c1nnc(C)n1-2 [JQ1] + NC(=O)Nc1cc(-c2cccc(F)c2)sc1C(=O)N[C@H]1CCCNC1 [AZD7762] (partner 0.2 µM)"
  tgt: "ChaGo-K-1"
  relative viability: 0.875
- compound: "Cc1sc2c(c1C)C(c1ccc(Cl)cc1)=N[C@@H](CC(=O)OC(C)(C)C)c1nnc(C)n1-2 [JQ1] + C[C@@H](Oc1cc(-c2cnn(C3CCNCC3)c2)cnc1N)c1c(Cl)ccc(F)c1Cl [Crizotinib] (partner 1 µM)"
  tgt: "ChaGo-K-1"
  relative viability: 1.04

Query relative viability on ChaGo-K-1 for Cc1sc2c(c1C)C(c1ccc(Cl)cc1)=N[C@@H](CC(=O)OC(C)(C)C)c1nnc(C)n1-2 [JQ1] + Cc1nc(Nc2ncc(C(=O)Nc3c(C)cccc3Cl)s2)cc(N2CCN(CCO)CC2)n1 [Dasatinib] (partner 0.075 µM) 0.663
